The origin of these recorded values is patent US20140087995A1.

Would you mind telling me the reported pIC50 of each entry?
- TEST_TARGET: T1, human calcitonin receptor (human, UniProt P30988 25-474)
- T1 construct: whole, on cells; also called hCTR; hCT
- T1 sequence (looked up): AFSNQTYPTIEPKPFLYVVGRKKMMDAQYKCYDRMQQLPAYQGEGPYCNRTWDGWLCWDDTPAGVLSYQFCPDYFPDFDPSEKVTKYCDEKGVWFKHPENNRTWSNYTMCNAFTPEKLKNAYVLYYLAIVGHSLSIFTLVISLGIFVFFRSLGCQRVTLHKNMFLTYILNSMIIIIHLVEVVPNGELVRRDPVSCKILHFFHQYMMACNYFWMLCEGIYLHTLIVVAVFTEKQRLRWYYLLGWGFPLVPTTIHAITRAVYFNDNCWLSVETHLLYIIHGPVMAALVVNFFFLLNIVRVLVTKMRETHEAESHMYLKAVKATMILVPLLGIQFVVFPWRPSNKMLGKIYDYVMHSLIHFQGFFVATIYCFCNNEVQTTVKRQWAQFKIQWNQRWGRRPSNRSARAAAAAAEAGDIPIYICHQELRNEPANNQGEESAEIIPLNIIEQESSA
- ASSAY_DETAILS: SPA competition with 125I-calcitonin, membranes of BHK hCTR cells (Assay VII)
Numbered stars: 1 amine (or outer) side, 2 acyl side, 3 side chain; on linkers, the order of the positions; unused ones are H or OH. Bridge positions count the residues as written; N and C are the ends. Side chains are listed from the residue outwards. Ends that are not written are not given here. * marks the point of attachment. C20 diacid = O=C(O)CCCCCCCCCCCCCCCCCCC(=O)*; γGlu = O=C(O)[C@H](CCC(=O)[*:2])N[*:1]; AEEA = NCCOCCOCC(=O)O
Answers are plain numbers, as −log10 of the molar value.

# example entries with known answers
BINDER | RESULT
KCNTATCATQRLAEFLRHSSPNFGAIPSSTNVGSNTY (C20 diacid-gGlu-2xOEG on alpha amino group of N-terminal Lys 1; disulfide Cys2-Cys7; C-terminal amide (as human amylin), also called compound 19) | 7.69
K([AEEA-γGlu-C20 diacid])CNTATCATQRLANFLRHSSPNFGAIPPSTPVGSNTY-NH2 (disulfide 2-7, also called compound 53) | 8.27
KCNTATCATQRLANFLRHSSPNFGAIPSSTNVGSNTY (C20 diacid-gGlu-2xOEG on alpha amino group of N-terminal Lys 1; disulfide Cys2-Cys7; C-terminal amide (as human amylin), also called compound 24) | 6.99
KCNTATCATQRLANFLRHSSPNFGAIPSSTNVGSKTY (C20 diacid-gGlu on alpha amino group of N-terminal Lys 1; disulfide Cys2-Cys7; C-terminal amide (as human amylin), also called compound 34) [N^α1-[(4S)-4-carboxy-4-(19-carboxynonadecanoylamino)butanoyl]-[Arg17,Pro21,Pro27,Lys35]-h-amylin] | 7.13

List reported pIC50 for each of these binders:
1. KCNTATCATQRLANFLRHSSPNFGAIPSSTNVGRNTY (C20 diacid-gGlu on alpha amino group of N-terminal Lys 1; disulfide Cys2-Cys7; C-terminal amide (as human amylin), also called compound 39) [N^α1-[(4S)-4-carboxy-4-(19-carboxynonadecanoylamino)butanoyl]-[Arg17,Pro21,Pro27,Arg34]-h-amylin]
2. KCNTATCATQRLANFLRHSSPNFGAIPSSTNVGSETY (C20 diacid-gGlu on alpha amino group of N-terminal Lys 1; disulfide Cys2-Cys7; C-terminal amide (as human amylin), also called compound 23) [N^α1-[(4S)-4-carboxy-4-(19-carboxynonadecanoylamino)butanoyl]-[Arg17,Pro21,Pro27,Glu35]-h-amylin]
3. KCNTATCATQRLANFLRHSSPNFGAIPSSTNVGHNTY (C20 diacid-gGlu on alpha amino group of N-terminal Lys 1; disulfide Cys2-Cys7; C-terminal amide (as human amylin), also called compound 40) [N^α1-[(4S)-4-carboxy-4-(19-carboxynonadecanoylamino)butanoyl]-[Arg17,Pro21,Pro27,His34]-h-amylin]

Solution:
1. 7.71
2. 7.66
3. 7.77
